experimental-conditions: in isopropanol, 328.15 K
quantity-measured: solubility (mole fraction)
Keep the answer to the number alone.

Data request: Entry Cl.O=C(O)c1cn(-c2ccc(F)cc2)c2cc(N3CCNCC3)c(F)cc2c1=O : reported solubility (mole fraction) = ?
Data returned: 0.00172

----------
experimental-conditions: in acetonitrile, 293.15 K
quantity-measured: solubility (mole fraction)
Keep the answer to the number alone.

Data request: Entry Cl.O=C(O)c1cn(-c2ccc(F)cc2)c2cc(N3CCNCC3)c(F)cc2c1=O : reported solubility (mole fraction) = ?
Data returned: 0.00017

----------
experimental-conditions: in n-hexane, 313.15 K
quantity-measured: solubility (mole fraction)
Keep the answer to the number alone.

Data request: Entry Cl.O=C(O)c1cn(-c2ccc(F)cc2)c2cc(N3CCNCC3)c(F)cc2c1=O : reported solubility (mole fraction) = ?
Data returned: 0.00089

----------
experimental-conditions: in acetonitrile, 308.15 K
quantity-measured: solubility (mole fraction)

Data request: Entry Cl.O=C(O)c1cn(-c2ccc(F)cc2)c2cc(N3CCNCC3)c(F)cc2c1=O : reported solubility (mole fraction) = ?
Data returned: 0.00028

----------
experimental-conditions: in ethyl acetate, 323.15 K
quantity-measured: solubility (mole fraction)

Data request: Entry Cl.O=C(O)c1cn(-c2ccc(F)cc2)c2cc(N3CCNCC3)c(F)cc2c1=O : reported solubility (mole fraction) = ?
Data returned: 0.0126

----------
experimental-conditions: in n-hexane, 283.15 K
quantity-measured: solubility (mole fraction)
Keep the answer to the number alone.

Data request: Entry Cl.O=C(O)c1cn(-c2ccc(F)cc2)c2cc(N3CCNCC3)c(F)cc2c1=O : reported solubility (mole fraction) = ?
Data returned: 0.00033

----------
experimental-conditions: in n-hexane, 293.15 K
quantity-measured: solubility (mole fraction)
Keep the answer to the number alone.

Data request: Entry Cl.O=C(O)c1cn(-c2ccc(F)cc2)c2cc(N3CCNCC3)c(F)cc2c1=O : reported solubility (mole fraction) = ?
Data returned: 0.00044

----------
experimental-conditions: in DMF, 323.15 K
quantity-measured: solubility (mole fraction)

Data request: Entry Cl.O=C(O)c1cn(-c2ccc(F)cc2)c2cc(N3CCNCC3)c(F)cc2c1=O : reported solubility (mole fraction) = ?
Data returned: 0.00359

----------
experimental-conditions: in ethanol, 328.15 K
quantity-measured: solubility (mole fraction)
Keep the answer to the number alone.

Data request: Entry Cl.O=C(O)c1cn(-c2ccc(F)cc2)c2cc(N3CCNCC3)c(F)cc2c1=O : reported solubility (mole fraction) = ?
Data returned: 0.00072

----------
experimental-conditions: in n-hexane, 333.15 K
quantity-measured: solubility (mole fraction)
Keep the answer to the number alone.

Data request: Entry Cl.O=C(O)c1cn(-c2ccc(F)cc2)c2cc(N3CCNCC3)c(F)cc2c1=O : reported solubility (mole fraction) = ?
Data returned: 0.00155

----------
experimental-conditions: in DMF, 333.15 K
quantity-measured: solubility (mole fraction)
Keep the answer to the number alone.

Data request: Entry Cl.O=C(O)c1cn(-c2ccc(F)cc2)c2cc(N3CCNCC3)c(F)cc2c1=O : reported solubility (mole fraction) = ?
Data returned: 0.0044

----------
experimental-conditions: in ethyl acetate, 308.15 K
quantity-measured: solubility (mole fraction)

Data request: Entry Cl.O=C(O)c1cn(-c2ccc(F)cc2)c2cc(N3CCNCC3)c(F)cc2c1=O : reported solubility (mole fraction) = ?
Data returned: 0.00831
